- Tested on: human apolipoprotein B mRNA
- testName: Inhibition of human apolipoprotein B mRNA levels in HepG2 cells, quantitative real-time PCR
- Assay type: cell-based
- assayConditions: HepG2 cells treated with 150 nM of compound; averages from two experiments; quantitative real-time PCR
In the oligonucleotide strings, read from the 5' end, every base follows the letter of its sugar. An asterisk marks phosphorothioate; unmarked linkages are phosphodiester. Other units and linkages are bracketed, terminal groups are in braces. A string of capitals states the bases alone. e = 2'-O-(2-methoxyethyl) (MOE); [5mC] = 5-methylcytosine; d = 2'-deoxy (DNA)
Record form. Attribute: % INHIB (inhibition of human apolipoprotein B mRNA levels). Fill in for each entry.
Answers are plain numbers, in %.

{"substance": "271006 (antisense eA*eG*eT*e[5mC]*e[5mC]*dG*dG*dA*dA*dT*dG*dA*dT*dG*dA*eT*eG*e[5mC]*e[5mC]*e[5mC]) [compound 271006]", "testedTarget": "human apolipoprotein B mRNA", "assayValue": 42}
{"substance": "281618 (antisense eA*eA*eG*e[5mC]*eA*dG*dA*d[5mC]*dA*dT*d[5mC]*dT*dG*dT*dG*eG*eT*e[5mC]*e[5mC]*e[5mC]) [compound 281618]", "testedTarget": "human apolipoprotein B mRNA", "assayValue": 90}

Record % INHIB (inhibition of human apolipoprotein B mRNA levels) for all entries; do not skip any.
1. 281587 (eA*eT*eG*eT*eG*dT*dA*d[5mC]*dT*dT*d[5mC]*d[5mC]*dG*dG*dA*eG*eG*eT*eG*e[5mC]; antisense) [compound 281587]
2. 271044 (e[5mC]*e[5mC]*e[5mC]*eA*eG*dT*dG*dG*dT*dG*d[5mC]*d[5mC]*dA*d[5mC]*dT*eG*eG*e[5mC]*eT*eG; antisense) [compound 271044]
3. 281631 (antisense eT*e[5mC]*eA*eA*e[5mC]*dG*dG*d[5mC]*dA*dT*d[5mC]*dT*d[5mC]*dT*d[5mC]*eA*eT*e[5mC]*eT*e[5mC]) [compound 281631]
4. 301033 (eA*e[5mC]*eT*eG*e[5mC]*d[5mC]*dT*dA*d[5mC]*dT*dG*d[5mC]*dA*dA*dG*eG*e[5mC]*eT*eG*eG; antisense) [compound 301033]

[77, 22, 88, 77]

Record % INHIB (inhibition of human apolipoprotein B mRNA levels) for all entries; do not skip any.
1. 281615 (antisense eT*eA*eG*eA*eT*d[5mC]*dT*d[5mC]*dT*dG*dG*dA*dG*dG*dA*eT*eT*eT*eG*e[5mC]) [compound 281615]
2. 270989 (antisense e[5mC]*e[5mC]*eA*eG*e[5mC]*dT*dT*dG*dA*dG*d[5mC]*dT*d[5mC]*dA*dT*eA*e[5mC]*e[5mC]*eT*eG) [compound 270989]

81
64

Record % INHIB (inhibition of human apolipoprotein B mRNA levels) for all entries; do not skip any.
1. 271005 (antisense eG*eG*e[5mC]*eA*e[5mC]*d[5mC]*d[5mC]*dA*dT*d[5mC]*dA*dG*dA*dA*dG*e[5mC]*eA*eG*e[5mC]*eT) [compound 271005]
2. 301039 (eT*eG*eG*eT*eG*d[5mC]*d[5mC]*dA*dG*d[5mC]*dT*dT*dT*dG*dG*eT*eG*e[5mC]*eA*eG; antisense) [compound 301039]

[32, 73]

GET /values?readout=% INHIB (inhibition of human apolipoprotein B mRNA levels)&item= 281604 (antisense e[5mC]*eT*eG*eA*eG*dT*dT*d[5mC]*dA*dA*dG*dA*dT*dA*dT*eT*eG*eG*e[5mC]*eA) [compound 281604] 78

Data origin: patent US7803930B2
